Consider the following compounds and their measured IC50 readings.
molecular target: human histamine H3 receptors (Homo sapiens (Human)); assay: Histamine H3 SPA with the agonist radioligand [3H]-N-α-methylhistamine (hH3 binding); conditions: inhibition of [3H]-N-α-methylhistamine (1.4 nM) binding to CHO-K1 membranes expressing full-length human H3 (isoform 445)
Sequence (Q9Y5N1 whole entry, canonical isoform): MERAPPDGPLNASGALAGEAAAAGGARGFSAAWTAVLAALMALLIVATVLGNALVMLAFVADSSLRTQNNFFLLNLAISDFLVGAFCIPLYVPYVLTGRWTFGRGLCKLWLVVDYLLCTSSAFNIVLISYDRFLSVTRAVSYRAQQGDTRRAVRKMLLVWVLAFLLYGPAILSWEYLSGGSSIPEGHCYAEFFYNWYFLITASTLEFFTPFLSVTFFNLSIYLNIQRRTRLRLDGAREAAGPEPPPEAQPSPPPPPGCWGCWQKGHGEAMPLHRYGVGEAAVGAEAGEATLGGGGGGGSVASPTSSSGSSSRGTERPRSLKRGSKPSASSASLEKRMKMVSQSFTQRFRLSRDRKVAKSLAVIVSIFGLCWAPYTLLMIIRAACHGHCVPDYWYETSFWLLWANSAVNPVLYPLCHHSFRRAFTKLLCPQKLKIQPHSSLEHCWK
RECORDED ENDPOINT: IC50 (nM)

>>> value("O=C([C@@H]1C[C@H]1c1ccccc1)N1CCN(C2CCC2)CC1")
6420
>>> value("CC(C)(C)N1CCN(C(=O)[C@H]2C[C@@H]2c2ccccc2)CC1 (relative stereo)")
45.3
>>> value("CS(=O)(=O)Nc1ccc([C@H]2C[C@@H]2C(=O)N2CCN(C3CCC3)CC2)cc1 (relative stereo)")
62.5
>>> value("CCCN1CCN(C(=O)[C@H]2C[C@@H]2c2ccccc2)CC1 (relative stereo)")
146
